# measurementDescription: Human HepG2 cell viability assay in 384 well format
# Format: toxicity, cell-based
# Parameters: dose 125 nL, time 70.5 hour; concentration not given beside the values
# measurementSetup: HepG2 cells, read-out: Inhibition
readoutKind: cytotoxicity at 70.5 h (%)
Reply numerically in %, unit not repeated.

• CNS(=O)(=O)CC(=O)N1CCC(c2ccc(F)c(F)c2)CC1 = 0.695
• CCc1noc(CN(C)CC(c2cccs2)N2CCOCC2)n1 (stereo unspecified) = -1.63
• CN(C)c1nccc(CNS(=O)(=O)c2ccc(F)c(Cl)c2)n1 = -5.5
• Cc1csc(C2(NCc3nc(-c4ccco4)no3)CCCC2)n1 = -12.8
• Cc1cnc(NS(=O)(=O)c2cccc(C#N)c2)s1 = 20.1

Please turn your attention to the following entry.
Look up cytotoxicity at 70.5 h for this molecule: `CN(C)c1nccnc1C1CCN(c2cnccn2)CC1`
-3.32

###

# measurementDescription: Human HepG2 cell viability assay in 384 well format
# Type: toxicity, cell-based
# Design: dose 125 nL, time 70.5 hour; concentration not given beside the values
# measurementSetup: HepG2 cells, read-out: Inhibition
readoutKind: cytotoxicity at 70.5 h (%)
Reply numerically in %, unit not repeated.

Below: 4 compounds and their reported cytotoxicity at 70.5 h.
- CCn1c(C)cc(C(=O)N2CCCC(C(=O)c3nccn3C)C2)c1C (stereo not given): 19.6
- CCOCCCC(=O)NC1CCN(C(C)c2ccccc2)CC1 (stereo not given): -5.8
- CCc1ncc(C(=O)NC(C)(C)CC)s1: -1.24
- Cc1oncc1C(=O)N1CCC(O)(CN2CCOCC2)C(C)(C)C1 (stereo not given): -2.15

Look up cytotoxicity at 70.5 h for this compound: `CC(C)c1nn(C)c(N2CCOCC2)c1CNCCC(=O)N(C)C`
22.2

Look up cytotoxicity at 70.5 h for this compound: `Cc1ncsc1C(=O)NCCNc1cnccn1`
-3.47

Look up cytotoxicity at 70.5 h for this compound: `COc1ccccc1-n1c(CC(C)C)nnc1SCC(=O)O`
-2.95

Look up cytotoxicity at 70.5 h for this compound: COc1ccc(NC2CCCN(Cc3cnc(N(C)C)s3)C2)cc1OC (stereo not given)
-12

###

This listing pairs compounds with measured cytotoxicity at 70.5 h.
# measurementDescription: Human HepG2 cell viability assay in 384 well format
# Format: toxicity, cell-based
# Parameters: dose 125 nL, time 70.5 hour; concentration not given beside the values
# measurementSetup: HepG2 cells, read-out: Inhibition
Your reply should be a number followed by the unit it is expressed in.

Below: 8 compounds and their reported cytotoxicity at 70.5 h.
* Fc1cccc(C(NCc2ncc[nH]2)c2ccccc2)c1 (centres undefined) | -3.27%
* O[C@@H]1C[C@@](CNCc2ccc(F)cc2)(COc2cccnc2)C[C@@H]1O | 0.0431%
* COc1ncc(CN2CCOC(Cc3cccc4ccccc34)C2)cn1 (centres undefined) | 20%
* CN(CC(=O)Nc1cccnc1)C1CCCN(c2cccnn2)C1 (centres undefined) | 31.2%
* COc1cccc(-c2cnc3n2CCC32CCN(C(C)=O)CC2)c1 | -3.5%
* OCC1(O)CCN(c2ncccc2C(F)(F)F)CC1 | -0.128%
* Cc1cnn(CCC(=O)N2CCCC(c3noc(C)n3)C2)c1 (centres undefined) | 1.71%
* CCS(=O)(=O)N1Cc2ccccc2CC1C(=O)OCc1c(C)noc1C (centres undefined) | -7.84%

Please turn your attention to the following entry.
Look up cytotoxicity at 70.5 h for this compound: `CCOC(=O)CNC(=O)c1cc2n(n1)CCCO2`
-11.8%
